- System: SNB-75 CNS
- experiment_description: NCI tumour cell line growth inhibition, 48 h
Consider the following molecules and their measured log10(TGI) readings.
Give log10 of TGI, with TGI taken in µM.

- CCOC(=O)c1nnc2c(C(=O)OCC)c3ccccc3n2c1N: 1.83
- COc1cc(F)ccc1-c1ncnc(Nc2cccc(CS(C)(=N)=O)c2)n1 (stereo not drawn): 0.54

In the following, a different molecule is considered.
So what log10(TGI) did `C=CCCCCOc1ccccc1-c1cnc(OCCCCC=C)n1C` get with SNB-75 CNS?
1.06

---

- System: SK-MEL-2 melanoma
- experiment_description: NCI tumour cell line growth inhibition, 48 h
metric: TGI

• [N-]=[N+]=N[C@H]1C[C@@H](CO)O[C@H]1n1cnc2c(N)ncnc21 = > 100 µM
• N#CCCN(C(=O)Nc1ccccc1)[C@H]1CCCC[C@@H]1N(C(=O)Nc1ccccc1)c1ccccc1 = > 100 µM
• CCCc1nc(NC#N)nc(C(=O)Nc2ccccc2)c1CC = > 100 µM

In the following, a different compound is considered.
# get_value(readout='TGI', item= CCOC(=O)C12OC(CCC1=O)C(C(=O)OC)=C2C(=O)OC (centres undefined) )
> 10 µM

---

- Tested on: HL-60(TB) leukemia
- experiment_description: NCI tumour cell line growth inhibition, 48 h
metric: TGI

Examples with their reported TGI follow.
- O=c1c(/C=C/c2c(O)ccc3ccccc23)nnc2sc(-c3cccc(Br)c3)nn12: 26.6 µM
- CCOC(=O)NC(Nc1ccc(S(=O)(=O)Nc2nc(C)cc(C)n2)cc1)(C(=O)OCC)C(F)(F)F (stereo not given): > 100 µM
- CCOc1ccc(NC(=O)C(=O)CC(=O)c2c(C)n([O-])c3ccccc3[n+]2=O)cc1: > 100 µM
- CC1CCC(=O)C(C(=O)CC2CC(=O)N(C)C(=O)C2)C1 (stereo not given): > 100 µM
- CCOC(=O)Nc1ccc(-c2nc(-c3cccc(OCCN4CCOCC4)c3)c(-c3ccnc(Br)c3)[nH]2)cc1: 5.39 µM
- Nc1nc(SC/C=C/c2ccccc2)c2[nH]cnc2n1: > 100 µM

# get_value(readout='TGI', item= CCOC(=O)C12OC(CCC1=O)C(C(=O)OC)=C2C(=O)OC (stereo not given) )
> 10 µM

---

- Tested on: COLO 205 colon
- experiment_description: NCI tumour cell line growth inhibition, 48 h
metric: GI50

Examples with their reported GI50 follow.
* COc1c(OC[C@H](O)CN2CCOCC2)ccc2c3n(c(=NC(=O)c4cccnc4C)nc12)CCN3 | 0.918 µM
* COc1ccc(/C=C2/N=C(c3ccccc3)N(c3c(C)n(C)n(-c4ccccc4)c3=O)C2=O)cc1OC | > 100 µM
* COc1ccc2c(c1)C(=O)c1c-2c(N2CCN(C(=O)CNCCNCCO)CC2)nc2ccccc12 | 2.17 µM
* COc1cccc2c1C(=O)c1c(O)c3c(c(O)c1C2=O)C[C@](O)(C(=O)CO)C[C@H]3O[C@@H]1C[C@@H](NC(=O)CCCCCN(C)C2(c3ccc(F)cc3)CC3CCC2C3)[C@H](O)[C@@H](C)O1 (stereo partly drawn) | 0.728 µM
* O=C1C=CC(=O)c2cc3cc(CBr)ccc3cc21 | 4.19 µM
* CS(=O)(=O)CCNCc1nc(-c2ccc3ncnc(Nc4ccc(OCc5cccc(C(F)(F)F)c5)cc4)c3c2)cs1 | > 23.9 µM
* CC[C@H]1[C@@H]2C=C[C@@H]3[C@H]4C/C=C\C(=O)NCCC[C@@H]5NC(=O)/C(=C(O)/C=C/[C@@H]4C[C@@H]3[C@H]2C[C@H]1C)C5=O | 3.24 µM

In the following, a different compound is considered.
# get_value(readout='GI50', item= `CC(C)Oc1ccc2cc(-c3nn(CC4CCNCC4)c4ncnc(N)c34)ccc2c1` )
3.39 µM
